So I've got a bunch of compounds here, and I need their melting point values.

compound: COc1cc(-c2nc3ccc(N)cc3s2)cc(OC)c1OC [Compound 48]
melting point: 212 to 215 °C

compound: COc1cc(OC)cc(-c2nc3ccc(OC)cc3s2)c1 [Compound 3]
melting point: 121 to 123 °C

compound: COc1cc(-c2nc3ccc(NC(=O)c4ccccc4)cc3s2)cc(OC)c1OC [Compound 50]
melting point: 205 to 207 °C

Below: the item to evaluate.
What does the record list as melting point for COc1ccc(-c2nc3ccc(Br)cc3s2)cc1OC [Compound 33] ?
165 to 168 °C

----------
assay.system: recombinant human NQO2 (Homo sapiens)
Sequence (P16083 1-231): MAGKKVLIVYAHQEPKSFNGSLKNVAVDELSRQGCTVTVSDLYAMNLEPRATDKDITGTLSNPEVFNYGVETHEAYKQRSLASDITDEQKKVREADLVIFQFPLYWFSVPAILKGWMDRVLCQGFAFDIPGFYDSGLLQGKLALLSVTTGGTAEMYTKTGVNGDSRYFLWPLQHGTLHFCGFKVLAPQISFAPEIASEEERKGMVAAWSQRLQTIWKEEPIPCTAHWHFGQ
assay.details: NQO2 enzyme inhibition assay (DCPIP substrate, NRH or EPR co-substrate)
Assay type: biochemical
conditions.used: DCPIP substrate, NRH co-substrate; read-out: IC50 for inhibition of NQO2
Procedure: In this assay, dichlorophenolindophenol (DCPIP) was used as a substrate for NQO2. NRH (SI or EP0152R) was used as the co-substrate for the enzyme. The NQO2 enzyme assay was carried out using a […] GO spectrophotometer by measuring the absorbance of DCPIP at 600 nm. NRH [31] or EPR were used as co-substrates. […] The initial rates of the enzyme reactions were calculated from the curve by taking the initial slopes of the reactions using the formula (ΔAb/ΔTime). […]
measured.property: IC50 (nM)
Numbers only, in nM.

Examples with their reported IC50 follow.
smiles.notation: COc1ccc2nc(-c3cc(OC)c(OC)c(OC)c3)sc2c1
assay.system: recombinant human NQO2 (Homo sapiens)
unit.abbreviation: nM
IC50: 51
--
smiles.notation: COc1ccc(-c2nc3ccc(Br)cc3s2)cc1OC
assay.system: recombinant human NQO2 (Homo sapiens)
unit.abbreviation: nM
IC50: 9090

Kindly give each listed record's IC50.
1. COc1ccc(-c2nc3ccc(Cl)cc3s2)cc1OC
2. COc1cc(-c2nc3ccc(NC(=O)c4ccccc4)cc3s2)cc(OC)c1OC
3. COc1ccc(-c2nc3ccc(Cl)cc3s2)c(OC)c1
4. COc1cc(OC)cc(-c2nc3ccc(OC)cc3s2)c1
5. COc1ccc2nc(-c3cc(F)cc(F)c3)sc2c1
6. COc1ccc(OC)c(-c2nc3ccc(Cl)cc3s2)c1
7. COc1cc(-c2nc3ccc(N)cc3s2)cc(OC)c1OC

1: 91700; 2: 3170; 3: 33500; 4: 108; 5: 12000; 6: 1180; 7: 79

----------
assay.system: recombinant human NQO2 (Homo sapiens)
assay.details: NQO2 enzyme inhibition assay (DCPIP substrate, NRH or EPR co-substrate)
Format: biochemical
conditions.used: inhibition of NQO2; DCPIP 40 µM, NRH or EPR 200 µM, phosphate buffer pH 7.4, 37 °C, triplicate; read-out: IC50 (µM) ± SD
Decision: IC50 beneath 4 µM gives fulfilled; IC50 meeting or exceeding 4 µM gives not fulfilled.

These recorded examples may help you get a feel for the data.
compound: COc1ccc2nc(-c3cc(OC)c(OC)c(OC)c3)sc2c1 [Compound 40]
class: fulfilled
--
compound: COc1cc(OC)cc(C(=O)Nc2ccc3nc(-c4cc(OC)cc(OC)c4)sc3c2)c1 [Compound 14]
class: fulfilled
--
compound: COc1ccc(OC)c(-c2nc3ccc(F)cc3s2)c1 [Compound 29]
class: fulfilled
--
compound: COc1ccc(-c2nc3ccc(C(F)(F)F)cc3s2)c(OC)c1 [Compound 18]
class: not fulfilled
--
compound: COc1ccc(-c2nc3ccc(Cl)cc3s2)c(OC)c1 [Compound 19]
class: not fulfilled
--
compound: COc1cc(-c2nc3ccc([N+](=O)[O-])cc3s2)cc(OC)c1OC [Compound 47]
class: fulfilled
--
compound: COc1ccc(-c2nc3ccc(Br)cc3s2)cc1OC [Compound 33]
class: not fulfilled
--
compound: Oc1cc(O)cc(-c2nc3ccc(O)cc3s2)c1 [Compound 15]
class: fulfilled

Consider the compound COc1ccc(-c2nc3ccc(F)cc3s2)c(OC)c1 [Compound 21] . Is its IC50 strictly less than 4 µM?
fulfilled

# check: IC50 < 4 µM for COc1cc(OC)cc(-c2nc3ccc(C(F)(F)F)cc3s2)c1 [Compound 5]
fulfilled

Answer whether the compound COc1cc(-c2nc3ccc(C(F)(F)F)cc3s2)cc(OC)c1OC [Compound 42] has IC50 strictly less than 4 µM
not fulfilled

Data origin, for the record: paper PMC11593696
